This collection of values is drawn from patent US6124305A.

# tgt: human plasma DPP-IV (Homo sapiens, UniProt P27487)
# Construct: DPP-IV activity in human and rat plasma
# Sequence (P27487 39-766 limits assumed): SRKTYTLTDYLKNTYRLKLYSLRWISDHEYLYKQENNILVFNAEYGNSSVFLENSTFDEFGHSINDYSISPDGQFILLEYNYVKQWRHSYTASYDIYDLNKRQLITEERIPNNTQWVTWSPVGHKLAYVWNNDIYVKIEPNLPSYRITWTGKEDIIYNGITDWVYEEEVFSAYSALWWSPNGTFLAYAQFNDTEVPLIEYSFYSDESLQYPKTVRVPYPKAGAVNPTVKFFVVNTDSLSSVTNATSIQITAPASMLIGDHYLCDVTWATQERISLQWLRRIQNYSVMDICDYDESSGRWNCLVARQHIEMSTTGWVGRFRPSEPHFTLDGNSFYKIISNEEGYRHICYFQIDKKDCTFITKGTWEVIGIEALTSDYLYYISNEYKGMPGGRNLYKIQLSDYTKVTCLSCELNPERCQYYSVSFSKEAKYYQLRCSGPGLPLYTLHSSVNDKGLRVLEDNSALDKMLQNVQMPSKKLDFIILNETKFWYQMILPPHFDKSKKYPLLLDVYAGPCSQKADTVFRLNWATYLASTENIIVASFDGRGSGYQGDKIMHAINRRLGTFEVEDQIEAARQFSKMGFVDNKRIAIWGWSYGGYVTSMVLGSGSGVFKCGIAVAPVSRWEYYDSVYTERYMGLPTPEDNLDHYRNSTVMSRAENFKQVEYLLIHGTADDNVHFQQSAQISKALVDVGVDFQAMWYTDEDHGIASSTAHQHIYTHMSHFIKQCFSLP
# test method notes: human plasma DPP-IV inhibition assay
# condition details: H-Glycine-Proline-AMC substrate, pH 7.8, room temperature, 20 min
Counter-ions that a name gives are not always drawn.
Define the label as Yes when IC50 is strictly less than 200 nM and as No in all remaining cases.

Request: Take the compound C[C@H](NCC(=O)N1CCC[C@H]1C#N)[C@H](O)c1ccccc1 [Ex. 41] and say whether its IC50 is less than 200 nM.
Response: Yes

Request: Take the compound N#C[C@@H]1CCCN1C(=O)CNCCc1ccccn1 [Ex. 30, dihydrochloride] and say whether its IC50 is less than 200 nM.
Response: Yes

Request: Take the compound COc1cc(CCNCC(=O)N2CCC[C@H]2C#N)cc(OC)c1 [Ex. 46, monohydrochloride] and say whether its IC50 is less than 200 nM.
Response: No

Request: Take the compound CN(CCCNCC(=O)N1CCC[C@H]1C#N)c1ccccc1 [Ex. 22, dihydrochloride] and say whether its IC50 is less than 200 nM.
Response: Yes

Request: Take the compound N#C[C@@H]1CCCN1C(=O)CN[C@@H]1CCN(Cc2ccccc2)C1 [Ex. 17, dihydrochloride] and say whether its IC50 is less than 200 nM.
Response: No
